biological target: human TGFßRII (antigen of the Octet experiments) (human, UniProt P37173 23-166)
Sequence (P37173 23-166): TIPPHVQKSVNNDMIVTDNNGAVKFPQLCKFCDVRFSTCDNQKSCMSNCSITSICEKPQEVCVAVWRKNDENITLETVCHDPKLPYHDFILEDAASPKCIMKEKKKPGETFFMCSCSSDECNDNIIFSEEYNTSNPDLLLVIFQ
readout name: pKd
Bear in mind: pKd is minus log10 of a mol/L concentration; give just that figure.

binder	pKd
XENP36164 H1.181 L1 (antibody, V domains shown) VH: QLQVQESGPGLVKPSETLSLTCTVSGGSISNSYFSWGWIRQPPGKGLEWIGSFYYGGKTYYNPSLKSRATISIDTSKNQFSLKLSSVTAADTAVYYCARGPTMIRGVIDSWGQGTLVTVSS VL: EIVLTQSPATLSLSPGERATLSCRASQSVRSYLAWYQQKPGQAPRLLIYDASNRATGIPARFSGSGSGTDFTLTISSLEPEDFAVYYCQQRSNWPPTFGQGTKVEIK	8.64

Req: Dear colleague, please send me the reported pKd for XENP36175 H1.192 L1 (antibody, V domains shown) VH: QLQVQESGPGLVKPSETLSLTCTVSGGSISTSYFSWGWIRQPPGKGLEWIGSFYYGGKTYYNPSLKSRATISIDTSKNQFSLKLSSVTAADTAVYYCARGPTMIRGVIDSWGQGTLVTVSS VL: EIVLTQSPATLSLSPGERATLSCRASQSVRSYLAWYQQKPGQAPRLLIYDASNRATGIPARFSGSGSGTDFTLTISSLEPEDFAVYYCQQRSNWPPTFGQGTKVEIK when you can.
Resp: 8.36

Req: Dear colleague, please send me the reported pKd for XENP36179 H1.196 L1 (antibody, V domains shown) VH: QLQVQESGPGLVKPSETLSLTCTVSGGSISQSYFSWGWIRQPPGKGLEWIGSFYYGGKTYYNPSLKSRATISIDTSKNQFSLKLSSVTAADTAVYYCARGPTMIRGVIDSWGQGTLVTVSS VL: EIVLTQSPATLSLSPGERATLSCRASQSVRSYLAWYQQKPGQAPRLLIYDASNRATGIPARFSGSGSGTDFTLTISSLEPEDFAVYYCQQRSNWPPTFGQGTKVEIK when you can.
Resp: 8.43

Req: Dear colleague, please send me the reported pKd for XENP36171 H1.188 L1 (antibody, V domains shown) VH: QLQVQESGPGLVKPSETLSLTCTVSGGSISSSYFSWGWIRQPPGKGLEWIGSFYYGGKTYYNPSLKSRATISIDTSKNQFSLKLSSVTAADTAVYYCARGPTMIRGVIDSWGQGTLVTVSS VL: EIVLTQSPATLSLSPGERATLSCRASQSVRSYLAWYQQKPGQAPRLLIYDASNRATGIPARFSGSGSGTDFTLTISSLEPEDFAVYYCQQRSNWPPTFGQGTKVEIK when you can.
Resp: 8.38

Origin of measurements: patent US20220144956A1
